Give composite z-score for every item shown.
Assay: small-molecule binders of probe aInhba, primary screen, biochemical, small-molecule microarray, 635/667 nm fluorescence (AID 1148);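 also: score merges 667nm spot fluorescence with signal-to-noise for antibody binding to printed compounds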
Condition notes: higher = more signal
No unit in the answer, only the number.

q: Need composite z-score, item "C=CC[C@]1(C(=O)O)N=C(c2ccc(OCCCO)cc2)O[C@H]1c1ccccc1"
a: -0.0471

q: Try this compound next: "NC(=O)NCC#Cc1ccc2c(c1)[C@]1(C(=O)N2)[C@H](c2ccccc2OCCO)N2[C@H](c3ccccc3)[C@H](c3ccccc3)OC(=O)[C@H]2[C@@H]1C(=O)N1CCN(c2ncccn2)CC1"
a: -0.0762

q: Same lookup for "Cc1ccc(S(=O)(=O)N2[C@@H](c3ccccc3)C(C(=O)O)=CC[C@H]2c2ccccc2)cc1" , please.
a: 0.0631

q: Follow-up entry: O=C1C2C=CC(C(O)c3ccccc3)N(n3cnnc3)C2C(=O)N1Cc1ccccc1 (configuration not stated)
a: 0.241

q: Try "COC(=O)Cn1c(C(=O)N2CCCC2)cc2c1C[C@H]1CN(C(=O)c3ccccc3)[C@@](Cc3ccccc3)(C(=O)OC)[C@@H]21" next.
a: 0.158

q: Again, but for "CO[C@H]1O[C@H](CO)[C@@H](OC(=O)Nc2ccc(Oc3ccccc3)cc2)[C@H](OC(=O)Nc2ccccc2-c2ccccc2)[C@H]1OC(=O)Nc1ccccc1-c1ccccc1"
a: 0.268

q: # repeat for "O=C1c2ccccc2[C@](Cc2ccccc2I)(C(=O)O)[C@H](c2ccc(CO)cc2)N1C1CCCCC1"
a: 0.0676

###

Assay target: Calmodulin-1 (Homo sapiens)
Assay: calcium-bound CALM1 binders on microarrays, profiling panel, artefact control for SMM control-protein annotation, biochemical, small-molecule microarray, Cy5-labelled CALM1, plus calcium (AID 1112);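 also: score merges spot fluorescence with signal to noise from triplicate slides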
Condition notes: Cy5-CALM1 binding fluorescence, higher = more signal
Reported endpoint: composite z-score

q: // query composite z-score value for entry "CC(C)[Si]1(C(C)C)OCc2cc(C3CC3)nc(-c3ccccc3)c21"
a: -0.183

q: One more compound: "COCCOC(=O)N1C(=O)[C@@]2(c3cc(C#CCCO)ccc31)[C@H](c1ccc(OCCO)cc1)N1[C@H](c3ccccc3)[C@H](c3ccccc3)OC(=O)[C@H]1[C@@H]2C(=O)NC[C@H](O)c1ccccc1"
a: 0.003

q: Follow-up entry: "C=CCc1cccc([C@H]2N[C@H](C(=O)O)CC[C@@H]2C)c1"
a: -1.26

q: Request: C=CCC(OC(C)=O)[C@@H]1[C@@H](N(Cc2cc3ccccc3o2)C(=O)c2ccc(C)cc2)c2cc(OCCCO)ccc2N1C(=O)c1ccc2ccccc2n1 (some centres undefined)
a: 0.574

q: "COCCOC(=O)N1C(=O)[C@@]2(c3cc(C#CC4=CCCCC4)ccc31)[C@H](C(=O)NC[C@H](O)c1ccccc1)[C@H]1C(=O)O[C@H](c3ccccc3)[C@H](c3ccccc3)N1[C@@H]2c1ccc(OCCO)cc1" ?
a: -0.206

q: // next record "Cc1ccc(S(=O)(=O)N2[C@@H](c3ccccc3)C(C(=O)O)=CC[C@H]2c2ccccc2)cc1"
a: 0.355

q: Again, but for CN1C(=O)C2C=CC(C(O)C3CC=CCC3)N(Nc3ccccc3)C2C1=O (centres undefined)
a: 0.129

q: Same thing, different compound: "COc1cc2c(cc1OC)CN(C(=O)[C@H]1[C@@H]3C(=O)O[C@@H](c4ccccc4)[C@@H](c4ccccc4)N3[C@@H](c3ccccc3OCCO)[C@]13C(=O)Nc1ccc(C#CC4(O)CCCCCC4)cc13)CC2"
a: -0.407

q: Let us now turn to "Cc1ccc(S(=O)(=O)N[C@H]2COC(=O)CC=C[C@H](C)COC(=O)N[C@@H](C)C(=O)CC=C[C@@H]2C)cc1"
a: -1.39

q: Same question, "CC(=O)NCCCC[C@@H]1NC(=O)[C@H]2C[C@@H](C(=O)NCCCCCCN(C)C)[C@@H](c3cccc(OCCO)c3)N2C1=O" this time
a: -1.32

q: Please answer likewise for "C=CCNC(=O)[C@H]1[C@@H]2C(=O)O[C@@H](c3ccccc3)[C@@H](c3ccccc3)N2[C@@H](c2ccccc2OCCO)[C@]12C(=O)N(C(=O)OCCOC)c1ccc(C#CCNC(N)=O)cc12"
a: 0.559

q: // same read-out, input: CC(c1ccccc1)C(O)C1C=CC2C(=O)N(C)C(=O)C2N1N(c1ccccc1)c1ccccc1 (centres undefined)
a: 0.723

q: Try "CC(C)=C1C(=O)C(c2ccccc2)=C2CN3C(=O)N(CCc4ccccc4)C(=O)[C@]3(Cc3ccccc3)[C@H]21" next.
a: 0.197

q: Can you handle Cc1ccccc1C(O)C1C=CC2C(=O)N(c3ccccc3)C(=O)C2N1Nc1ccc(C#N)cc1 (centres undefined) next?
a: 1.27

###

Answer each item with its documented z-score.
Assay: yeast growth modulation, basal conditions, primary screen, YJM789 clinical isolate, OD600, 24 h (AID 1089);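 also: growth of clinical yeast isolate S. cerevisiae YJM 789 seeded 1000 cells per well; test concentration not given here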
Condition notes: S. cerevisiae YJM789 growth, higher = more signal, called active from +8 up or from −8 down
Please give the numeric answer without any surrounding text.

q: // lookup z-score for "C=C(CCCC)/C(=C/C[C@H](OC(=O)c1ccncc1)c1cccc(OCCO)c1)c1cc(C(=O)OC)ccc1OC"
a: 0.15

q: Now consider CC(C)C[C@@H]1NC(=O)[C@H](CC(C)C)NC(=O)[C@@]23C(=O)N[C@@H](Cc4ccccc4)C2[C@H](C)[C@@]2(C)O[C@H]2C3/C=C/CC/C=C/CNC1=O (stereo partly drawn) and answer again.
a: -0.833

q: Try CC[C@H]1C2=C3C(CC[C@H]4C(OC)OC[C@](C)([C@@H]34)N(C(=O)OC(C)(C)C)C2)C(CO)C1CO (stereo partly drawn) next.
a: -1.22

q: And what about the molecule "CCC#CCN(Cc1ccccc1Br)[C@H](/C=C/c1ccccc1)[C@@H](O)Cc1ccccc1" ?
a: 0.629

q: Try this molecule next: C=CCC(OC(C)=O)[C@@H]1[C@@H](N(Cc2ccc(-c3ccccc3)cc2)C(=O)c2ccc(-c3ccccc3)cc2)c2cc(OCCCO)ccc2N1C(=O)Cc1ccc(OC)cc1 (stereo partly drawn)
a: -0.809

q: // next record "Cc1ccc(S[C@]2(C(=O)O)CC(=O)N(Cc3ccccc3)[C@@H]2c2ccc(CO)cc2)cc1"
a: -0.179

q: What about CN1CCC(CCCO)=CC1C1CC1 (stereo not drawn) ?
a: -0.477

q: Would you mind doing "CO[C@H]1COC(=O)[C@H](C)NC(=O)CC=C[C@@H](C)[C@H](NS(=O)(=O)c2ccc(C)cc2)COC(=O)CC=C[C@@H]1C" as well?
a: -0.733

###

Assay target: E3 ubiquitin-protein ligase XIAP (Homo sapiens) (UniProt P98170)
Sequence (P98170 whole entry, looked up): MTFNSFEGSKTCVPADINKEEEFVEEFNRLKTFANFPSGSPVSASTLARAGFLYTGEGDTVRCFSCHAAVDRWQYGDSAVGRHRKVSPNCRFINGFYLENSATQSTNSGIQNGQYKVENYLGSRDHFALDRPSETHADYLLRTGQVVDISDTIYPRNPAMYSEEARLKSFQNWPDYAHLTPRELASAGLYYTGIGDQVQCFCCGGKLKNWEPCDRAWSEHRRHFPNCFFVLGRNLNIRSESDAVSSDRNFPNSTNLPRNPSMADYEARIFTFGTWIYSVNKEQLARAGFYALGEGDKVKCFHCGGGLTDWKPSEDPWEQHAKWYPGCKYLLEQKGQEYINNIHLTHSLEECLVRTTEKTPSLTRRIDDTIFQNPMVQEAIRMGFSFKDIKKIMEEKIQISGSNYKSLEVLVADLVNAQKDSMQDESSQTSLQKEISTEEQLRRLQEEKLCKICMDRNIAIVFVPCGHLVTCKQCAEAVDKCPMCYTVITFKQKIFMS
Assay: XIAP binders, primary screen, biophysical, small-molecule microarray, fluorescence 635 nm (AID 1181);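 also: score merges 667 nm emission and signal to noise over triplicate slides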
Condition notes: small-molecule microarray binding, higher = more signal
Decide using composite z-score: a value greater than or equal to -0.1 is TRUE, a smaller one is FALSE.

q: Exam item: decide whether the reported composite z-score for "COCC(=C=CC[C@H](O)c1ccc(OCCO)cc1)C[C@H](O)c1ccccn1" is at least -0.1.
a: TRUE

q: Try this molecule next: O=C1OCCC/C=C\[C@H]2OC34C=CCN(CCN5CCOCC5)C(=O)[C@H]3N(CCCCCO)C(=O)[C@@H]4C12 (stereo partly drawn)
a: FALSE

q: Then "CO[C@H]1COC(=O)[C@@H](C)NC(=O)CC=C[C@@H](C)[C@H](OC)COC(=O)CC=C[C@@H]1C" ?
a: FALSE

q: Query "COc1ccc([Si](C)(C)[C@@H]2[C@@H](CCO)O[C@]3(C(=O)N(Cc4ccccc4)c4ccccc43)[C@H]2C)cc1" next
a: FALSE

q: Do the same for "CCCC[C@H]1OB(O)C[C@H]2C1=C(COC)C[C@H]1C(=O)N(Cc3ccccc3)C(=O)[C@H]12" please
a: FALSE

q: Please give the result for "CCCNC(=O)[C@@]1(Sc2ccc(C)cc2)CC(=O)N(Cc2ccccc2Cl)[C@@H]1c1ccc(CO)cc1" too.
a: TRUE

q: What about this molecule? "C=C(CCCC)/C(=C/C[C@@H](OC(=O)c1ccncc1)c1ccc(CO)o1)c1cnc2ccccc2c1"
a: TRUE

q: Now give it for "Cc1ccc(S[C@]2(C(=O)NC(C)C)CC(=O)N(C3Cc4ccccc4C3)[C@@H]2c2ccc(CO)cc2)cc1" too.
a: TRUE

###

System: Human papillomavirus type 1a E7 protein (residues 1-88)
Assay: HPV1a E7 small-molecule binders, primary screen, biochemical, small-molecule microarray, residues 1-88, 635 nm (AID 1129)
Condition notes: small-molecule microarray binding, fluorescence 635 nm; higher = more signal
Reported endpoint: composite z-score

q: # query: composite z-score | item "CO[C@H]1COC(=O)[C@@H](OCc2ccccc2)C=C[C@H](C)[C@@H](OC)COC(=O)[C@H](OCc2ccccc2)C=C[C@@H]1C" | system: Human papillomavirus type 1a E7 protein (residues 1-88)
a: -0.0882

q: Likewise for "O=C1O[C@@H](c2ccccc2)[C@@H](c2ccccc2)N2[C@@H](c3ccc(O)cc3)[C@]3(C(=O)Nc4ccc(C#CC5(O)CCCCCC5)cc43)[C@@H](C(=O)Nc3nc4ccccc4s3)[C@H]12" ?
a: 1.22

q: Same thing, different compound: "COc1cc([C@@H]2N[C@H](C(=O)O)Cc3c2[nH]c2ccccc32)cc(OC)c1OC"
a: 0.431
